test.description: NCI Yeast Anticancer Drug Screen. Data for the mlh1 rad18 strain (AID 175)
protocol.conditions: S. cerevisiae mlh1 rad18 strain growth inhibition; at 50.0 µM; hits give high values
The panel holds about 79,000 compounds, 15% with a hit somewhere; the sample as a whole holds those more often.
Give measured growth inhibition for each item. Keep answers brief.
Answers are plain numbers, in %.

N#C/C(=C/c1c(O)ccc2ccccc12)C(N)=O: 60.9

Please state growth inhibition for every molecule in the list that follows.
1. COc1ccccc1Oc1ccc(N=Cc2ccc(C)cc2)cc1
2. O=C(NNCN1C(=O)c2ccccc2C1=O)c1ccccc1

**Result**
[5.3, -4.7]

Record growth inhibition for all entries; do not skip any.
1. Cc1cc2nn(C3CCCO3)nc2cc1C (stereo unspecified)
2. O=C(O)/C=C/C(=O)Nc1cc(Cl)c(Cl)cc1Cl

**Result**
1. -36.4
2. -10.9

Here are 3 molecules. What values of growth inhibition were reported for them?
1. O=C(O)C1(c2ccc(Cl)cc2)CCCC1
2. O=C(O)C(O)C(O)C(OC1OC(CO)C(O)C(O)C1O)C(O)CO.O=C(O)C(O)C(O)C(OC1OC(CO)C(O)C(O)C1O)C(O)CO.[NH-]C1CCCCC1[NH-].[Pt+2] (stereo unspecified)
3. CC(C)C(C(=O)c1ccccc1)c1ccccc1 (stereo unspecified)

**Result**
1: 60.6; 2: -63.5; 3: -3.55

Required: growth inhibition, one value per molecule below.
1. CC1(O)CC2CC1C(C(=O)O)C2C(=O)O (stereo unspecified)
2. CC(=Nc1ccncc1)C(C)=Nc1ccncc1
3. N#C/C(=C/c1ccc(O)c(O)c1)C(N)=O

**Result**
1. -15.1
2. 88.7
3. 17.1
